// inhibition at 50 µM lookup, one value per entry
biological target: E. coli TP (Escherichia coli, UniProt P07650); construct: purchased Sigma Aldrich T2807-1KU; assay: In vitro E. coli thymidine phosphorylase inhibition, spectrophotometric assay at 290 nm; type: biochemical; conditions: compound at 50 µM; 2.5% DMSO; average of three measurements
Sequence (P07650 whole entry): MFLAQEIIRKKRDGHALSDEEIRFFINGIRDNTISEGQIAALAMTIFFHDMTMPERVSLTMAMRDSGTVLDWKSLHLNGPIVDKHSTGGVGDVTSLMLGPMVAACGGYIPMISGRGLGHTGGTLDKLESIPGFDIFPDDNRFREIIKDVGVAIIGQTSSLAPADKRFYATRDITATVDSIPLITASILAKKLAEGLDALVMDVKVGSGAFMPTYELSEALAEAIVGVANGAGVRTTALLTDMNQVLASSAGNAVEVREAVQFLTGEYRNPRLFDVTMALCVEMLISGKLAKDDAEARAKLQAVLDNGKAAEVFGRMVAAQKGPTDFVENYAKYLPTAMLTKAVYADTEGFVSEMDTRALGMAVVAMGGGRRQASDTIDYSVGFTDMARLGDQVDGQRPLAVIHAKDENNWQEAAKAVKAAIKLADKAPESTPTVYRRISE

[
  {
    "molSmiles": "Cc1ccc2nc3[nH]c(=O)[nH]c(=O)c3cc2c1",
    "inhibition at 50 µM / %": 0
  },
  {
    "molSmiles": "COc1ccc2c(C)c3c(=O)[nH]c(=O)[nH]c3nc2c1",
    "inhibition at 50 µM / %": 67
  },
  {
    "molSmiles": "COc1ccc2cc3c(=O)[nH]c(=O)[nH]c3nc2c1",
    "inhibition at 50 µM / %": 89
  },
  {
    "molSmiles": "O=c1[nH]c(=O)c2cc3c(ccc4ccccc43)nc2[nH]1",
    "inhibition at 50 µM / %": 29
  }
]
